Overview of recorded composite z-score for various compounds
# Tested on: Neuregulin-1 EGF-like domain
# test details: small molecules binding NRG1 EGF domain – biochemical, small-molecule microarray, 635 nm fluorescence, primary screen (AID 1081);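 note: binding of the protein to compounds printed on small-molecule microarray slides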
# conditions used: higher = more signal

The examples below pair each entry with its known result.
[[record]]
compound = "C[N+](C)(C)CCCC[C@@H]1NC(=O)[C@@H]2C[C@H](C(=O)NCCCCCCNC(=O)CS)[C@H](c3cccc(OCCO)c3)N2C1=O"
system_under_test = "Neuregulin-1 EGF-like domain"
endpoint = "composite z-score"
value = 1.36

[[record]]
compound = "C[N+](C)(C)CCCCNC(=O)[C@H]1C[C@H]2C(=O)N3CCC[C@H]3C(=O)N2[C@H]1c1ccc(O)cc1"
system_under_test = "Neuregulin-1 EGF-like domain"
endpoint = "composite z-score"
value = 1.34

[[record]]
compound = "C=CCOC(=O)[C@@H]1[C@H]2C(=O)O[C@H](c3ccccc3)[C@H](c3ccccc3)N2[C@H](c2ccc(OCCOC(=O)[C@H]3C[C@H]4C(=O)N[C@@H](Cc5ccccc5)C(=O)N4[C@H]3c3ccc(O)cc3)cc2)[C@@]12C(=O)Nc1ccc(I)cc12"
system_under_test = "Neuregulin-1 EGF-like domain"
endpoint = "composite z-score"
value = 1.3

[[record]]
compound = "C=CCN1C(=O)[C@]2(Cc3ccccc31)N=C(c1ccc(OCCCO)cc1)O[C@@H]2c1ccccc1"
system_under_test = "Neuregulin-1 EGF-like domain"
endpoint = "composite z-score"
value = 1.2

[[record]]
compound = "CCOC(=O)C1=CC[C@@H](c2ccccc2)N(S(=O)(=O)c2ccc(C)cc2)[C@H]1c1ccc(C#N)cc1"
system_under_test = "Neuregulin-1 EGF-like domain"
endpoint = "composite z-score"
value = 1.01

[[record]]
compound = "CC(C)OC(=O)C1=CCC(c2cccc(Cl)c2)O1 (configuration not stated)"
system_under_test = "Neuregulin-1 EGF-like domain"
endpoint = "composite z-score"
value = 1.06


[in] What measured composite z-score goes with COCCOC(=O)N1C(=O)[C@@]2(c3cc(C#CC4=CCCCC4)ccc31)[C@H](C(=O)N1CCN(c3ncccn3)CC1)[C@H]1C(=O)O[C@H](c3ccccc3)[C@H](c3ccccc3)N1[C@@H]2c1ccc(OCCO)cc1 ?
[out] 1.17
